# System: Yap1 mRNA
# assayExplanation: Dose-dependent inhibition of human Yap1 in A-431 cells (Example 8, 10,000 cells per well, RTS4814)
# Format: cell-based
# conditionParameters: A-431 cells, free uptake, approximately 48 hours, RTS4814; linear regression on log/linear plot
pIC50: −log10 of the molar value. Strand notation (5' to 3'): a small letter for the sugar, then the base; units joined by * are phosphorothioate-linked, units joined directly phosphodiester-linked; [ ] holds rarer units or linkages, { } end groups; capitals alone tell only the bases. k = constrained ethyl (cEt); [5mC] = 5-methylcytosine; d = 2'-deoxy (DNA)
property: pIC50

Please look up its pIC50: 1074464 (kT*kT*kA*dG*dA*dG*dT*dA*dT*dG*dT*dG*dG*k[5mC]*kA*kA) [compound 1074464]
> 7.70

Please look up its pIC50: 1074537 (k[5mC]*kA*kG*dT*dA*dA*dT*dA*dG*d[5mC]*dT*d[5mC]*dT*kT*kT*k[5mC]; antisense) [compound 1074537]
> 7.70

Please look up its pIC50: 1075111 (kT*kA*kG*dG*dA*dA*dT*dA*dT*dG*dG*dG*dT*kA*kG*kT; antisense) [compound 1075111]
> 7.70

Please look up its pIC50: 1074480 (kT*k[5mC]*kA*dT*dT*dT*dG*d[5mC]*d[5mC]*dT*dA*dG*dG*kT*kT*k[5mC]; antisense) [compound 1074480]
> 7.70

Please look up its pIC50: 1075047 (antisense kT*kA*kA*dA*dA*dT*dT*dA*dG*dA*d[5mC]*dT*d[5mC]*k[5mC]*k[5mC]*k[5mC]) [compound 1075047]
6.70

Please look up its pIC50: 1075686 (kG*kT*kA*dA*dT*dT*dA*d[5mC]*dA*dG*dT*dG*dT*k[5mC]*kT*k[5mC]; antisense) [compound 1075686]
7.00

----------
# assayExplanation: Cynomolgus monkey tolerability, hematology (Example 34)
# Assay type: in vivo, cynomolgus monkeys
# conditionParameters: cynomolgus monkey, in vivo, sc, 35 mg/kg
Give BAS for every item shown.

Please look up its BAS: 1076453 (GTAATATTGCAATCTG; 3-10-3 cEt gapmer, further chemistry not given here) [compound 1076453]
0.4%

Please look up its BAS: 1198831 (CACTTTTACATTAGGA; chemically modified gapmer, further chemistry not given here) [compound 1198831]
0.3%

Please look up its BAS: 1198623 (CTAAGTAAGGTTTCCC; modified gapmer, further chemistry not given here) [compound 1198623]
0.4%

Please look up its BAS: 1198440 (AAGTGTATGTCAGAAG; cEt, 2'-MOE, 5-methylcytosine, phosphorothioate modifications, further chemistry not given here) [compound 1198440]
0.4%

----------
# System: Yap1 mRNA
# assayExplanation: Dose-dependent inhibition of human Yap1 in SNU-449 cells (Example 9, RTS36584)
# Assay type: cell-based
# conditionParameters: 2000.00 nM, free uptake, approximately 48 hours
Strand notation (5' to 3'): a small letter for the sugar, then the base; units joined by * are phosphorothioate-linked, units joined directly phosphodiester-linked; [ ] holds rarer units or linkages, { } end groups; capitals alone tell only the bases. e = 2'-O-(2-methoxyethyl) (MOE); k = constrained ethyl (cEt); [5mC] = 5-methylcytosine; d = 2'-deoxy (DNA); m = 2'-O-methyl
Rule: % UTC (Yap1 mRNA) of 5 % UTC or more gives Fulfilled; anything lower gives Not fulfilled.

Hi, just wondering whether 1198872 (TGTATGTCAGAAGAGT; chemically modified gapmer, further chemistry not given here) [compound 1198872] shows % UTC (Yap1 mRNA) of 5 % UTC or higher.
Not fulfilled

Hi, just wondering whether 1198856 (k[5mC]*kT*dT*dA*dT*dA*dT*dG*dG*dT*dT*kT*eT*kG*eT*kG; antisense) [compound 1198856] shows % UTC (Yap1 mRNA) of 5 % UTC or higher.
Fulfilled

Hi, just wondering whether 1198569 (CACTTTTACATTAGGA; modified gapmer, chemistry not fully specified) [compound 1198569] shows % UTC (Yap1 mRNA) of 5 % UTC or higher.
Fulfilled

Hi, just wondering whether 1198412 (kT*dT*dA*dG*dG*dA*dT*dG*d[5mC]*dA*dT*kG*eG*kT*eT*kT; antisense) [compound 1198412] shows % UTC (Yap1 mRNA) of 5 % UTC or higher.
Fulfilled

Hi, just wondering whether 1198352 (kT*kG*kT*dA*dT*dG*dT*d[5mC]*dA*dG*dA*dA*kG*eA*kG*eT; antisense) [compound 1198352] shows % UTC (Yap1 mRNA) of 5 % UTC or higher.
Not fulfilled

Hi, just wondering whether 1198423 (TCTTATATGGTTTTGT; all C 5-methyl, all phosphorothioate, sugars by position not given here; cEt/MOE mixed gapmer, notation at position 4 garbled) [compound 1198423] shows % UTC (Yap1 mRNA) of 5 % UTC or higher.
Fulfilled

Hi, just wondering whether 1198504 (kT*k[5mC]*dA*dG*dA*dT*dT*dT*dA*dG*dG*eA*kT*eG*k[5mC]*eA; antisense) [compound 1198504] shows % UTC (Yap1 mRNA) of 5 % UTC or higher.
Fulfilled

Hi, just wondering whether 1197270 (TTAAAGTGTATGTCAG; cEt gapmer with 2'-OMe nucleoside, phosphorothioate, further chemistry not given here) [compound 1197270] shows % UTC (Yap1 mRNA) of 5 % UTC or higher.
Not fulfilled

Hi, just wondering whether 1198613 (kA*kA*kA*dG*dT*dG*dT*dA*dT*dG*dT*d[5mC]*kA*kG*kA*eA; antisense) [compound 1198613] shows % UTC (Yap1 mRNA) of 5 % UTC or higher.
Not fulfilled

Hi, just wondering whether 1074798 (kG*k[5mC]*kT*dT*dT*dG*dG*dA*dA*dG*dA*dT*d[5mC]*kT*kG*kA) [compound 1074798] shows % UTC (Yap1 mRNA) of 5 % UTC or higher.
Fulfilled

Hi, just wondering whether 1198288 (kG*kA*kA*dA*dT*dT*dG*dT*d[5mC]*dT*d[5mC]*dA*kT*eG*k[5mC]*e[5mC]; antisense) [compound 1198288] shows % UTC (Yap1 mRNA) of 5 % UTC or higher.
Fulfilled

Hi, just wondering whether 1197312 (kT*kG*kT*dA*mU*dG*dT*d[5mC]*dA*dG*dA*dA*dG*kA*kG*kT; antisense) [compound 1197312] shows % UTC (Yap1 mRNA) of 5 % UTC or higher.
Fulfilled

Hi, just wondering whether 1198961 (kA*kA*dA*dG*dT*dG*dT*dA*dT*dG*dT*k[5mC]*dA*kG*dA*kA; antisense) [compound 1198961] shows % UTC (Yap1 mRNA) of 5 % UTC or higher.
Not fulfilled

Hi, just wondering whether 1198746 (kG*e[5mC]*kA*d[5mC]*dT*dT*dT*dT*dA*d[5mC]*dA*dT*eT*eA*kG*kG) [compound 1198746] shows % UTC (Yap1 mRNA) of 5 % UTC or higher.
Not fulfilled

Hi, just wondering whether 1198371 (kA*dT*dT*dG*dT*d[5mC]*dT*d[5mC]*dA*dT*dG*k[5mC]*e[5mC]*kT*eT*kA; antisense) [compound 1198371] shows % UTC (Yap1 mRNA) of 5 % UTC or higher.
Fulfilled

Hi, just wondering whether 1198805 (kA*kT*dT*dG*dT*d[5mC]*dT*d[5mC]*dA*dT*dG*k[5mC]*e[5mC]*kT*eT*kA; antisense) [compound 1198805] shows % UTC (Yap1 mRNA) of 5 % UTC or higher.
Fulfilled

Hi, just wondering whether 1198502 (kA*kG*dA*dT*dT*dT*dA*dG*dG*dA*dT*eG*k[5mC]*eA*kT*eG; antisense) [compound 1198502] shows % UTC (Yap1 mRNA) of 5 % UTC or higher.
Fulfilled

Hi, just wondering whether 1198466 (kA*kG*dA*dG*dT*dA*dT*dG*dT*dG*dG*e[5mC]*kA*eA*kT*eA; antisense) [compound 1198466] shows % UTC (Yap1 mRNA) of 5 % UTC or higher.
Fulfilled

Hi, just wondering whether 1198873 (kA*kG*dT*dG*dT*dA*dT*dG*dT*d[5mC]*dA*kG*eA*kA*eG*kA; antisense) [compound 1198873] shows % UTC (Yap1 mRNA) of 5 % UTC or higher.
Not fulfilled

Hi, just wondering whether 1198875 (kA*kA*dA*dG*dT*dG*dT*dA*dT*dG*dT*k[5mC]*eA*kG*eA*kA; antisense) [compound 1198875] shows % UTC (Yap1 mRNA) of 5 % UTC or higher.
Not fulfilled

Numbers sourced from patent US11214803B2.
